System: NALM-6
assay_overview: selective drug sensitivity score (sDSS, relative to normal bone marrow) (sDSS (score)); higher = more potent and effective on the cell line relative to normal bone marrow cells;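 further: ALL cell lines in 384-well plates, five doses spanning 10,000-fold, each plate scaled between vehicle and 100 µmol/L benzalkonium chloride controls, sDSS an adapted area-under-curve metric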
test_context: 72 h
Please mark YES if the recorded selective drug sensitivity score is equal to or greater than 2, and NO if it falls below.

Solved cases below.
compound: CCCCCCCCc1ccc(CCC(N)(CO)CO)cc1 [Fingolimod] (top concentration 10000 nM)
label_class: NO
//
compound: CN(c1ncccc1CNc1nc(Nc2ccc3c(c2)CC(=O)N3)ncc1C(F)(F)F)S(C)(=O)=O (top concentration 10000 nM)
label_class: YES
//
compound: COc1cc(C(=O)O)ccc1NC(=O)[C@@H]1N[C@@H](CC(C)(C)C)[C@](C#N)(c2ccc(Cl)cc2F)[C@H]1c1cccc(Cl)c1F [Idasanutlin] (top concentration 10000 nM)
label_class: YES
//
compound: COc1cc(Nc2c(C#N)cnc3cc(OCCCN4CCN(C)CC4)c(OC)cc23)c(Cl)cc1Cl [Bosutinib] (top concentration 10000 nM)
label_class: NO
//
compound: CN[C@@H]1C[C@H]2O[C@@](C)([C@@H]1OC)n1c3ccccc3c3c4c(c5c6ccccc6n2c5c31)C(=O)N[C@H]4O [UCN-01] (top concentration 10000 nM)
label_class: YES

Could you please find out whether Cn1cc(-c2[nH]c3cc(NC(=O)[C@H](N)C4CCCCC4)cc4c3c2C=NNC4=O)cn1 (top concentration 10000 nM) has selective drug sensitivity score that meets 2 or exceeds it? YES

Entry O=C(O)c1ccc(CN2CCC(CN[C@@H]3C[C@H]3c3ccccc3)CC2)cc1 (top concentration 100000 nM) : is its selective drug sensitivity score no less than 2? NO

###

Task for the reader: assign each of the following compounds its reported selective drug sensitivity score.
System: P30-OHKUBO
assay_overview: selective drug sensitivity score (sDSS, relative to normal bone marrow) (sDSS (score)); higher = more potent and effective on the cell line relative to normal bone marrow cells
test_context: 72 h
Numbers only.

compound: CC(C)(C)c1cc(NC(=O)Nc2ccc(Oc3ccnc4[nH]c(=O)cnc34)cc2F)n(-c2ccccc2)n1 (top concentration 25000 nM)
target_desc: P30-OHKUBO
selective drug sensitivity score: -0.08
--
compound: CC(C)(C)c1nc(-c2cccc(NS(=O)(=O)c3c(F)cccc3F)c2F)c(-c2ccnc(N)n2)s1 [Dabrafenib] (top concentration 2500 nM)
target_desc: P30-OHKUBO
selective drug sensitivity score: 5.18
--
compound: CCN1CCN(c2ccc(Nc3cc(N(C)C(=O)Nc4c(Cl)c(OC)cc(OC)c4Cl)ncn3)cc2)CC1 [Infigratinib] (top concentration 1000 nM)
target_desc: P30-OHKUBO
selective drug sensitivity score: 0
--
compound: O=C(Nc1ccc2[nH]nc(-c3ccncc3)c2c1)[C@@H]1CCN(CC(=O)N2CCN(c3ccc(-c4ncccn4)cc3)CC2)C1 (top concentration 10000 nM)
target_desc: P30-OHKUBO
selective drug sensitivity score: -3.74

For every listed record, write down its selective drug sensitivity score.
1. N#CC1(c2ccc(NC(=O)c3cccnc3NCc3ccncc3)cc2)CCCC1 [Apatinib] (top concentration 10000 nM)
2. CCN(c1cc(-c2ccc(CN3CCOCC3)cc2)cc(C(=O)NCc2c(C)cc(C)[nH]c2=O)c1C)C1CCOCC1 [Tazemetostat] (top concentration 10000 nM)
3. O=C(CCCCCCNC(=O)c1cnc(N(c2ccccc2)c2ccccc2)nc1)NO [Rocilinostat] (top concentration 10000 nM)

[0, 0.42, 5.04]

###

Record form. Attribute: selective drug sensitivity score. Fill in for each entry.
System: HAL-01
assay_overview: selective drug sensitivity score (sDSS, relative to normal bone marrow) (sDSS (score)); higher = more potent and effective on the cell line relative to normal bone marrow cells
test_context: 72 h
Numbers only.

Would you please look over these solved cases?
compound: CCCCCCCCc1ccc(CCC(N)(CO)CO)cc1 [Fingolimod] (top concentration 10000 nM)
recorded_value: 1.88
//
compound: COC12C(COC(N)=O)C3=C(C(=O)C(C)=C(N)C3=O)N1CC1NC12 (stereo in doubt) [Mitomycin_C] (top concentration 10000 nM)
recorded_value: 0.74
//
compound: CCC1(c2ccc(N)cc2)CCC(=O)NC1=O (stereo unspecified) [Aminoglutethimide] (top concentration 10000 nM)
recorded_value: 0
//
compound: NC(=O)/C(=C/n1cnc(-c2cc(C(F)(F)F)cc(C(F)(F)F)c2)n1)c1cncnc1 [Eltanexor] (top concentration 10000 nM)
recorded_value: 5.46

Would you mind giving selective drug sensitivity score for every compound in the list below?
1. CCS(=O)(=O)Nc1ccc(Oc2ccc(F)cc2F)c(-c2cn(C)c(=O)c3[nH]ccc23)c1 [Mivebresib] (top concentration 10000 nM)
2. C[C@H]1C[C@@H](n2c(Nc3ccc(OC(F)(F)F)cc3)nc3cc(CCC(=O)O)ccc32)CC(C)(C)C1 (top concentration 10000 nM)
3. CNC(=O)c1cccc(-c2ccc3c(N4CCOC[C@@H]4C)nc(N4CCOC[C@@H]4C)nc3n2)c1 [Vistusertib] (top concentration 10000 nM)
4. C[C@@H]1COC(Nc2ccc3ncnc(Nc4ccc(OCc5nccs5)c(Cl)c4)c3c2)=N1 [Varlitinib] (top concentration 10000 nM)
5. CCN(c1cc(-c2ccc(CN3CCOCC3)cc2)cc(C(=O)NCc2c(C)cc(C)[nH]c2=O)c1C)C1CCOCC1 [Tazemetostat] (top concentration 10000 nM)
6. Cc1nc2cccc(N)c2c(=O)n1C1CCC(=O)NC1=O (stereo unspecified) [Avadomide (CC122)] (top concentration 10000 nM)

1. 1.1
2. 1.16
3. 5.12
4. -0.18
5. 3.82
6. 1.6

Entry under review: CO[C@H]1C[C@@H]2CC[C@@H](C)[C@@](O)(O2)C(=O)C(=O)N2CCCC[C@H]2C(=O)O[C@H]([C@H](C)C[C@@H]2CC[C@@H](O)[C@H](OC)C2)CC(=O)[C@H](C)/C=C(\C)[C@@H](O)[C@@H](OC)C(=O)[C@H](C)C[C@H](C)/C=C/C=C/C=C/1C [Sirolimus] (top concentration 100 nM) . Reported selective drug sensitivity score? 0.44

###

Task for the reader: assign each of the following compounds its reported selective drug sensitivity score.
Tested on: SEM cells
assay_overview: selective drug sensitivity score (sDSS, relative to normal bone marrow) (sDSS (score)); higher = more potent and effective on the cell line relative to normal bone marrow cells
test_context: 72 h
One number for each entry.

For each of the compounds below, note its selective drug sensitivity score.
1. CC(C)N(CCCNC(=O)Nc1ccc(C(C)(C)C)cc1)C[C@H]1O[C@@H](n2cc(Br)c3c(N)ncnc32)[C@H](O)[C@@H]1O [SGC0946] (top concentration 10000 nM)
2. CNC(=O)[C@@H](NC(=O)[C@H](CC(C)C)[C@H](O)C(=O)NO)C(C)(C)C [Marimastat] (top concentration 10000 nM)
3. CCN(CC)CCNC(=O)c1c(C)[nH]c(/C=C2\C(=O)Nc3ccc(-c4csc(-c5ccccc5)n4)cc32)c1C [Amcasertib] (top concentration 10000 nM)
4. CON(C)C(=O)N1N=C(c2cc(F)ccc2F)S[C@@]1(CCCN)c1ccccc1 [Filanesib] (top concentration 1000 nM)

-0.72
-1.08
3
20.3

Please state selective drug sensitivity score for every compound in the list that follows.
1. O=C(Nc1cccc(NC(=O)c2cccc(O)c2O)c1)c1cccc(O)c1O [MST-312] (top concentration 10000 nM)
2. C[C@H](Nc1ncnc2nc[nH]c12)c1cc2cccc(Cl)c2c(=O)n1-c1ccccc1 [Duvelisib] (top concentration 500 nM)
3. C=CC(=O)Nc1cccc(Oc2nc(Nc3ccc(N4CCN(C)CC4)cc3)nc3ccsc23)c1 [Olmutinib] (top concentration 1000 nM)
4. CO[C@H]1C[C@@H]2CC[C@@H](C)[C@@](O)(O2)C(=O)C(=O)N2CCCC[C@H]2C(=O)O[C@H]([C@H](C)C[C@@H]2CC[C@@H](O)[C@H](OC)C2)CC(=O)[C@H](C)/C=C(\C)[C@@H](O)[C@@H](OC)C(=O)[C@H](C)C[C@H](C)/C=C/C=C/C=C/1C [Sirolimus] (top concentration 100 nM)
5. CCS(=O)(=O)N1CC(CC#N)(n2cc(-c3ncnc4[nH]ccc34)cn2)C1 [Baricitinib] (top concentration 2500 nM)
6. O=C1NC(=O)[C@@H](c2cn3c4c(cccc24)CCC3)[C@@H]1c1c[nH]c2ccccc12 [Tivantinib] (top concentration 1000 nM)
7. C[C@@]1(C(=O)Nc2ccc(F)nc2)CCCN1c1nc(Nc2cc(C3CC3)n[nH]2)c2cccn2n1 (top concentration 10000 nM)
8. CC(C)[C@H](C(=O)Nc1ccc(C(=O)NO)cc1)c1ccccc1 [AR-42] (top concentration 10000 nM)

1. 0.6
2. -0.54
3. -0.02
4. 1.34
5. -1.94
6. 7.18
7. 8.98
8. 9.08

Given CCCCCCCCCCCCCCCCCCOP(=O)([O-])OC1CC[N+](C)(C)CC1 [Perifosine] (top concentration 2500 nM) , state its recorded selective drug sensitivity score. -0.36
